molecular target: β1-adrenoreceptor (Cavia porcellus); construct: the hearts were excised and placed in ice-cold oxygenated Krebs Ringer buffer; tissue Charles River Laboratories (animals); assay: In vitro bioassay for β1-adrenergic activity (atrial rate); conditions: guinea pig atria, 37° C., pH=7.4, approximately four atrial preparations per compound
Sequence (H0W3H1 1-470): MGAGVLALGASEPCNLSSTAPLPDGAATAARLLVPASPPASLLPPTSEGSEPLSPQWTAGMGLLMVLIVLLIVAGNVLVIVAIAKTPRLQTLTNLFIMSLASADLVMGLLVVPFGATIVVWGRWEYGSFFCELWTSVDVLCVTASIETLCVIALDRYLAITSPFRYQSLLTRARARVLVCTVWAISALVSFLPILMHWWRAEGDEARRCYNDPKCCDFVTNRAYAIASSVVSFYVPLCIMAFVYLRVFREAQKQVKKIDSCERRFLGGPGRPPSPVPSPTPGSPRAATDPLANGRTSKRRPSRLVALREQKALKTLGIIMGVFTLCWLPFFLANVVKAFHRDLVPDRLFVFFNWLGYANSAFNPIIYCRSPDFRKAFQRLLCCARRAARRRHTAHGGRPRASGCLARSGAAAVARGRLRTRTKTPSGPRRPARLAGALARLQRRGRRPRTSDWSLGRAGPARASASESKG
Structures can show the parent of a compound that is named as a salt.
attribute measured: EC50 (nM)

Before answering, review these 2 worked examples.
• COCCCC(C)NC[C@H](O)c1ccc(O)c(O)c1 (stereo partly drawn) = 1.5
• N#CCCCNC[C@H](O)c1ccc(O)c(O)c1 = 4.6

P. CC(CCC[S+](C)[O-])NC[C@H](O)c1ccc(O)c(O)c1 (stereo partly drawn) [*, oxalate salt]
Q. C[S+]([O-])CCCNC[C@H](O)c1ccc(O)c(O)c1 (stereo partly drawn)
R. CCSCCCNC[C@H](O)c1ccc(O)c(O)c1
Ascending by EC50, please. Please reply with the labels ordered as requested. Many thanks.
P, R, Q
